Test system: Staphylococcus aureus
Assay: Antimicrobial activity against Staphylococcus aureus ATCC 29213 assessed as reduction in bacterial growth incubated for 24 hrs by Mueller-Hinton broth based assay
Assay type: functional
Listed here are compounds together with their documented MIC.
Express your answer in µg/mL, writing the number without its unit.

CC1(C)S[C@@H]2[C@H](NC(=O)[C@H](N)c3ccccc3)C(=O)N2[C@H]1C(=O)O    0.5
CC(C)=CCc1c(-c2ccc3c(c2O)C=CC(C)(C)O3)oc2cc(O)cc(O)c2c1=O    1
CC(C)=CCc1c(-c2ccc(O)c3c2OC(C)(C)C=C3)oc2cc(O)cc(O)c2c1=O    4

Task: What measured MIC goes with `O=C(N[C@H](CO)[C@H](O)c1ccc([N+](=O)[O-])cc1)C(Cl)Cl` ?
Result: 16

Cited source for all entries: ChEMBL document CHEMBL5360627
